From: PubChem BioAssay (NCI)

Tested on: TK-10 renal
assay_name: NCI-60 one-dose screen, 48 h
test_settings: 10 µM unless noted
Description: Growth inhibition of the TK-10 human tumor cell line is measured as a screen for anti-cancer activity. Cells are grown in 96 well plates and exposed to the test compound for 48 hours. Compounds are tested at a single concentration, which is 10^-5 M for most compounds. The reported endpoint is percent growth (GI% or GIPRCNT), where numbers from 0 - 100% represent growth inhibition, and numbers from -100% - 0 represent cell death. For example, a value of 40 represents 60% growth inhibition. […]
Compounds without any hit were thinned out: in the full panel of roughly 83,000, 20% have a hit. Active and inactive are the calls of the source. How the source made its calls: active means growth percent below 10; inactive means the rest.
Choose the fitting class; nothing outside t (active), f (inactive) is accepted.

Completed entries (count: 3):
COc1ccc(S(=O)(=O)N2CCCCCC2)cc1NC(=O)c1[nH]c(C)c2c1CCCCC2=O ... f
CC(C)(O)c1cn(CCCCN2C(=O)C(=O)c3ccccc32)nn1 ... f
COc1ccc(/C=C(\C#N)C(=O)Nc2cccc(Nc3nc(SC)nc(-c4cccc([N+](=O)[O-])c4)c3C#N)c2)cc1OC ... f

Request: Please state the recorded outcome for this compound: CC(=O)c1cc2c(N)c(C(=O)Nc3cccc4ccccc34)sc2nc1C
Result: f

Request: Do the same for O=C1c2cccc3cccc(c23)C(=O)N1CCCCN1CCN(CCCCOc2ccc(-c3nc4ccc(N5CCOCC5)cc4[nH]3)cc2)CC1 please
Result: f

Request: Now try CC1C(/C=N/Nc2ccccc2)C(C#N)(C#N)C1(C#N)C#N (stereo not given) .
Result: f

Request: Proceed to Cc1cc(N2CCOCC2)nc(NCc2cc(Nc3ccnc4cc(Cl)ccc34)ccc2F)n1
Result: t

Request: Proceed to O=C1c2c(O)cc(O)cc2-c2c(-c3ccc(O)cc3)oc3cc(O)cc1c23
Result: f

* * *

Test system: PC-3 prostate
assay_name: NCI-60 one-dose screen, 48 h (100 = growth as untreated, 0 = no growth, -100 = all killed)
test_settings: 10 µM unless noted
Compounds without any hit were thinned out: in the full panel of roughly 83,000, 20% have a hit.
Could you mark each record rule met if its growth falls strictly under 20%, and rule not met if it equals or exceeds it?

NC(=NCCCOc1ccc(Cl)cc1)Nc1ccc(Cl)cc1 ... rule not met
CC(C)(CCCN=C(N)Nc1ccc(Cl)cc1)c1ccc(F)cc1 ... rule not met
Nc1n[nH]c2ccc([C@@H]3Nc4ccc5cn[nH]c5c4[C@H]4C5CCC(C5)[C@@H]34)cc12 (stereo not given in full) ... rule met
CSc1nc(Nc2cccc(NC(=O)CCl)c2)c(C#N)c(-c2cccc([N+](=O)[O-])c2)n1 ... rule not met
COc1cccc(-c2nc3sccn3c2-c2ccnc(NCCNS(=O)(=O)c3ccccc3)c2)c1 ... rule met
N#CN1CC[C@H](C(=O)Nc2cc3cc(C(N)=O)ccc3cn2)C1 ... rule met
FC(F)(F)Oc1ccc2nc3nc4ccc[nH]c4cc3c2c1 ... rule not met
Cn1nc(N)c2cc([C@@H]3Nc4ccc5[nH]ncc5c4[C@H]4C5CCC(C5)[C@@H]34)ccc21 (stereo not given in full) ... rule met

Request: Hi there! Is growth for FC(F)(F)c1[nH]ncc1-c1nc2ccc3n[nH]c(C#Cc4cccnc4)c3c2c2c1CCCC2 below 20%, do you know?
Result: rule not met

Request: // next record NC1=C(Cl)C(=O)c2ccc(S(N)(=O)=O)cc2C1=O
Result: rule met

* * *

Tested on: HOP-62 NSCLC
assay_name: NCI-60 one-dose screen, 48 h
test_settings: 10 µM unless noted
This is part of a sample that, as a whole, favours compounds with a hit. Of some 83,000 tested, about 20% had one in any assay. The source made the active and inactive calls. How the source made its calls: active means growth percent below 10; inactive means the rest.
Bench note: report the call from true = active, false = inactive

Cc1cc2nc3[nH]c4ccccc4c3nc2cc1C ... false
COc1ccc(-c2nc3ccc(-c4nc5ccc(N6CCN(c7ccncc7)CC6)cc5[nH]4)cc3[nH]2)cc1OC ... false
CN(C)S(=O)(=O)c1ccc(S(=O)(=O)Nc2cccc(Cl)c2N2CCCCC2)cc1 ... false
O=C(COc1ccc(-c2nc3cc(Cl)c(Cl)cc3[nH]2)cc1)N=Nc1c(O)[nH]c2ccccc12 ... false
CCOc1cc2c(cc1OCC)C(c1cc(OC)c(O)cc1Cl)NCC2 (stereo not given) ... false

Request: Recorded test outcome, item COc1ccc(N=Nc2nccs2)c(O)c1
Result: false

Request: Next: COc1ccc(/C=C/C(=O)c2cc(O)ccc2O)cc1
Result: false

Request: Now consider O=C(O)COc1ccc(Cl)cc1C1CCCCC1 .
Result: false

* * *

Test system: SF-268 CNS
assay_name: NCI-60 one-dose screen, 48 h
test_settings: 10 µM unless noted
Procedure: Cells are grown in 96 well plates and exposed to the test compound for 48 hours. Compounds are tested at a single concentration, which is 10^-5 M for most compounds. The reported endpoint is percent growth (GI% or GIPRCNT), where numbers from 0 - 100% represent growth inhibition, and numbers from -100% - 0 represent cell death. For example, a value of 40 represents 60% growth inhibition. A value of 0 means no net growth occurred over the course of the experiment. […]
The panel holds about 83,000 compounds, 20% with a hit somewhere; the sample as a whole holds those more often. The source made the active and inactive calls. Rule for the calls: active = growth percent below 10; inactive = the rest.
Field 'call' accepts 1 (yes) for active, 0 (no) for inactive

CN1C(=O)C2(SCC(C(=O)NCc3ccccc3)N2C(=O)C2CCCCC2)c2ccccc21 (stereo not given) ... 0 (no)
OC(c1cc2cc(Cl)c(Cl)cc2c2cc(C(F)(F)F)ccc12)C1CCCCN1 (stereo not given) ... 1 (yes)
O=C(/C=C/c1ccc(C(F)(F)F)cc1)Nc1ccc(C=C2c3ccccc3C(=O)c3ccccc32)cc1 ... 0 (no)
CCCCN(CCCC)CCCn1c(-c2ccccc2)ccc1-c1ccccc1 ... 0 (no)

Next, consider the following compound.
Request: For COc1cc(/C=C/C(=O)c2ccc(O)c(CN3CCN(c4cc5c(cc4F)c(=O)c(C(=O)O)cn5C4CC4)CC3)c2)cc(OC)c1OC , which call appears in the assay record?
Result: 0 (no)

* * *

System: HCT-15 colon
assay_name: NCI-60 one-dose screen, 48 h
test_settings: 10 µM unless noted
Procedure: Growth inhibition of the HCT-15 human tumor cell line is measured as a screen for anti-cancer activity. Cells are grown in 96 well plates and exposed to the test compound for 48 hours. Compounds are tested at a single concentration, which is 10^-5 M for most compounds. The reported endpoint is percent growth (GI% or GIPRCNT), where numbers from 0 - 100% represent growth inhibition, and numbers from -100% - 0 represent cell death. For example, a value of 40 represents 60% growth inhibition. […]
This is part of a sample that, as a whole, favours compounds with a hit. Of some 83,000 tested, about 20% had one in any assay. Activity calls are given as the source filed them. The calls were made as follows: active = growth percent below 10; inactive = the rest.
Lab note: assign the record to one of TRUE (active), FALSE (inactive)

Cn1cc(C(=O)c2nc(-c3c[nH]c4ccccc34)no2)c2ccccc21 ... FALSE
CCCOc1cc2ccccc2cc1C(=O)Nc1nc(N)c2c(ccc3nccc32)[nH]1 ... TRUE
Cn1nc(N)c2cc([C@@H]3Nc4ccc5[nH]ncc5c4[C@H]4C5CCC(C5)[C@@H]34)ccc21 (stereo partly specified) ... FALSE
CC(C)(C)N1CCC1CN (stereo unspecified) ... FALSE
COc1cc(C2CC(=O)c3ccccc3N2)cc(OC)c1OC (stereo unspecified) ... FALSE
O=C(COc1ccc(/C=C2\CSc3ccccc3C2=O)cc1)Nc1nccs1 ... FALSE

Request: For N#C/C(=C\c1ccc(-c2ccc(Cl)c(Cl)c2)o1)c1nc(-c2ccco2)cs1 , which call appears in the assay record?
Result: FALSE

Request: Same lookup for Cn1cccc1-c1nc2c3c(ccc2[nH]1)C(=O)c1ccccc1C3=O , please.
Result: FALSE

Request: Now the same for O=[N+]([O-])c1cnc(N2CCN(CC3CC3)CC2)nc1N1CCN(CC2CC2)CC1
Result: FALSE

Request: // next record COc1ccc(-c2cc(C(=O)N=Nc3c(O)[nH]c4ccc(Br)cc34)no2)cc1
Result: FALSE

Request: // same read-out, input: C=CCSSC1N=CNc2nc[nH]c21 (stereo unspecified)
Result: FALSE

* * *

Test system: SR leukemia
assay_name: NCI-60 one-dose screen, 48 h (100 = growth as untreated, 0 = no growth, -100 = all killed)
test_settings: 10 µM unless noted
This is part of a sample that, as a whole, favours compounds with a hit. Of some 83,000 tested, about 20% had one in any assay.
property_name: growth (%)
Numbers only, in %.

CCn1c(Cc2ccccc2Nc2c(Cl)cccc2Cl)nnc1SCC(=O)NN1C(=O)/C(=C/c2cc(OC)c(O)c(OC)c2)SC1=S ... 21.4
COc1ccc(-n2nc(C)c3c(Nc4ccc(NC(=O)Nc5ccc(Cl)c(C(F)(F)F)c5)cc4)ncnc32)cc1 ... 20.8
COc1ccc(S(=O)(=O)N2CCCCC2)cc1NC(=O)c1[nH]c(C)c2c1CCCCC2=O ... 34.3
Cc1ccc(C2=NN3C(C2)c2cc(Br)ccc2OC32CCN(Cc3ccccc3)CC2)o1 (stereo not drawn) ... 90.2
O=C(/C=C/c1ccc(C(F)(F)F)cc1)Nc1ccc(C=C2c3ccccc3C(=O)c3ccccc32)cc1 ... 18.6
CN(C)c1ccc(N=Nc2ccc(Br)cn2)c(O)c1 ... 3.15
CN1CCN(Cc2ccc(NC(=O)c3cncc(C#Cc4cncn5ccnc45)c3)cc2C(F)(F)F)CC1 ... 40.8

Request: Hello, I am looking for reported growth with SR leukemia for COc1cccc(-c2nc(SCC(=O)Nc3ccc(C(=O)/C=C/c4ccc(OC)c(OC)c4)cc3)[nH]c(=O)c2C#N)c1 . Could you help?
Result: 60.6
